Entries and their MIC values follow.
Tested on: P. aeruginosa ATCC 27853 wild type and mutants
Test: MIC, wild type and GSK2251052 resistant mutants
Assay type: cell-based
Settings: Pseudomonas aeruginosa, ATCC27853, P wt.; read-out: MICs

| Smiles repr | MIC |
| --- | --- |
| O=C(N[C@H](CO)[C@H](O)c1ccc([N+](=O)[O-])cc1)C(Cl)Cl | > 64 µg/mL |
| COc1cc(Cc2cnc(N)nc2N)cc(OC)c1OC | > 64 µg/mL |
| NC[C@H]1O[C@H](O[C@H]2[C@H](O)[C@@H](O[C@H]3O[C@H](CO)[C@@H](O)[C@H](N)[C@H]3O)[C@H](N)C[C@@H]2N)[C@H](O)[C@@H](O)[C@@H]1O | > 64 µg/mL |

* * *

Tested on: Escherichia coli 1161435 parent and mutant strains B4, B26 and B35
Experiment: Sensitivity to leucine analogs in MH and M9 media
Format: cell-based
Conditions: B26 (R334H); M9
Entries and their MIC (sensitivity to leucine analogs) values follow.

| Molecule | MIC (sensitivity to leucine analogs) |
| --- | --- |
| NC(CC1CCCC1)C(=O)O (racemic) [3-Cyclopentyl-DL-Alanine] | > 128 µg/mL |
| CC(C)[C@H](N)C(=O)O [L-Valine] | > 128 µg/mL |
| CSCC[C@H](N)C(=O)O [L-Methionine] | > 128 µg/mL |
| CC[C@H](C)[C@H](N)C(=O)O [L-Isoleucine] | > 128 µg/mL |
| C[C@@H](O)[C@H](N)C(=O)O [L-Threonine] | > 128 µg/mL |
